tested on: Mycolicibacterium smegmatis; assay: Antimycobacterial activity against Mycobacterium smegmatis MC2 ATCC 19420 using compound level ranging from 1 to 100 ug/mL after 7 days by resazurin reduction test; type: functional; conditions: MC2 ATCC 19420, 168 h
Observed Property: MIC (µg/mL)
Give bare numbers, in µg/mL.

These recorded examples may help you get a feel for the data.
Problem: State, for Mycolicibacterium smegmatis, measured MIC of the molecule listed here: Cc1[nH]cnc1/C=N/NC(=O)c1cnc2c(C(F)(F)F)cccc2c1O
Result: 1

Problem: Under Mycolicibacterium smegmatis, report MIC for COc1ccc(NC(=O)NNC(=O)c2cnc3c(C(F)(F)F)cccc3c2O)cc1
Result: 10

Problem: State recorded MIC with Mycolicibacterium smegmatis, entry COc1ccc(/C=N/NC(=O)c2cnc3c(C(F)(F)F)cccc3c2O)c(F)c1 , no comment.
Result: 10

Problem: // output MIC; input Cn1cccc1/C=N\NC(=O)c1cnc2c(C(F)(F)F)cccc2c1O ; system Mycolicibacterium smegmatis
Result: 1

Problem: Return reported MIC for target or system Mycolicibacterium smegmatis, item Cc1ccc(NC(=O)NNC(=O)c2cnc3c(C(F)(F)F)cccc3c2O)cc1 .
Result: 10

# map each molecule to its MIC
1. O=C(NNC(=S)Nc1ccccc1F)c1cnc2c(C(F)(F)F)cccc2c1O
2. Cc1cccc2c(/C=N/NC(=O)c3cnc4c(C(F)(F)F)cccc4c3O)c[nH]c12
3. COc1ccc(/C=N/NC(=O)c2cnc3c(C(F)(F)F)cccc3c2O)cc1
4. NNC(=O)c1ccncc1
5. O=C(N/N=C/c1ccc(OC(F)(F)C(F)F)cc1)c1cnc2c(C(F)(F)F)cccc2c1O

Result:
10
1
10
50
10

* * *

test system: Mycolicibacterium smegmatis; test: Antimycobacterial activity against Mycobacterium smegmatis MC2 ATCC 19420 using compound level ranging from 1 to 100 ug/mL after 7 days by resazurin reduction test; format: functional; conditions: MC2 ATCC 19420, 168 h
Would you mind telling me the reported MIC of each entry?
One number for each entry, in µg/mL.

Problem: Tell us which MIC value is on record for COc1ccc2[nH]cc(/C=N/NC(=O)c3cnc4c(C(F)(F)F)cccc4c3O)c2c1
Result: 10

Problem: Indicate the recorded MIC value for this compound: O=C(N/N=C/c1cc(F)ccc1O)c1cnc2c(C(F)(F)F)cccc2c1O
Result: 10

Problem: Let me know recorded MIC for CO[C@H]1/C=C/O[C@@]2(C)Oc3c(C)c(O)c4c(O)c(c(/C=N/N5CCN(C)CC5)c(O)c4c3C2=O)NC(=O)/C(C)=C\C=C\[C@H](C)[C@H](O)[C@@H](C)[C@@H](O)[C@@H](C)[C@H](OC(C)=O)[C@@H]1C , thanks.
Result: 1.5

New cases:
Problem: Provide MIC value for the following compound: O=C(NNC(=S)Nc1cccc(Cl)c1)c1cnc2c(C(F)(F)F)cccc2c1O
Result: 10

* * *

system: Mycolicibacterium smegmatis; experiment: Antimycobacterial activity against Mycobacterium smegmatis MC2 ATCC 19420 using compound level ranging from 0.3125 to 5 ug/mL after 7 days by resazurin reduction test; format: functional; conditions: MC2 ATCC 19420, 168 h
Please go through the items and note down their MIC.
Give bare numbers, in µg/mL.

Problem: Return value of MIC for input Cc1[nH]cnc1/C=N/NC(=O)c1cnc2c(C(F)(F)F)cccc2c1O , no commentary.
Result: 1.25

Problem: Fill in reported MIC for this entry: COc1ccc(/C=N/NC(=O)c2cnc3c(C(F)(F)F)cccc3c2O)cc1
Result: 10

Problem: Give MIC for CO[C@H]1/C=C/O[C@@]2(C)Oc3c(C)c(O)c4c(O)c(c(/C=N/N5CCN(C)CC5)c(O)c4c3C2=O)NC(=O)/C(C)=C\C=C\[C@H](C)[C@H](O)[C@@H](C)[C@@H](O)[C@@H](C)[C@H](OC(C)=O)[C@@H]1C
Result: 1.5

Problem: Annotate the molecule O=C(NNC(=S)Nc1ccccc1F)c1cnc2c(C(F)(F)F)cccc2c1O with its measured MIC.
Result: 10

Hi! Can you tell me MIC for each of these molecules?
1. Cn1cccc1/C=N\NC(=O)c1cnc2c(C(F)(F)F)cccc2c1O
2. COc1ccc(NC(=O)NNC(=O)c2cnc3c(C(F)(F)F)cccc3c2O)cc1
3. O=C(NNC(=S)Nc1cccc(Cl)c1)c1cnc2c(C(F)(F)F)cccc2c1O
4. Cc1ccc(NC(=O)NNC(=O)c2cnc3c(C(F)(F)F)cccc3c2O)cc1

Result:
1: 1.25; 2: 10; 3: 2.5; 4: 10

* * *

tested on: Mycolicibacterium fortuitum; experiment: Antimycobacterial activity against Mycobacterium fortuitum ATCC 19542 using compound level ranging from 1 to 100 ug/mL after 7 days by resazurin reduction test; type: functional; details: ATCC 19542, 168 h
Observed Property: MIC

Problem: Tell me measured MIC for Cn1nnc2cc(/C=N\NC(=O)c3cnc4c(C(F)(F)F)cccc4c3O)ccc21 please.
Result: > 100 µg/mL

Problem: Output measured MIC for this item: Cc1cccc2c(/C=N/NC(=O)c3cnc4c(C(F)(F)F)cccc4c3O)c[nH]c12
Result: 10 µg/mL

Problem: Return MIC (reported value) for this compound: O=C(NNC(=O)c1cnc2c(C(F)(F)F)cccc2c1O)Nc1cccc(Cl)c1
Result: > 100 µg/mL

Problem: Answer with reported MIC of CSc1ccccc1/C=N/NC(=O)c1cnc2c(C(F)(F)F)cccc2c1O
Result: > 100 µg/mL

Provide MIC for all items below, preserving their order.
1. O=C(NNC(=S)Nc1cccc(Cl)c1)c1cnc2c(C(F)(F)F)cccc2c1O
2. O=C(N/N=C/c1ccc(OC(F)(F)C(F)F)cc1)c1cnc2c(C(F)(F)F)cccc2c1O
3. COC(=O)Cc1cc(/C=N/NC(=O)c2cnc3c(C(F)(F)F)cccc3c2O)co1
4. COc1ccc(NC(=S)NNC(=O)c2cnc3c(C(F)(F)F)cccc3c2O)cc1
5. COc1ccc2[nH]cc(/C=N/NC(=O)c3cnc4c(C(F)(F)F)cccc4c3O)c2c1
6. Cc1ccc(NC(=S)NNC(=O)c2cnc3c(C(F)(F)F)cccc3c2O)cc1

Result:
> 100 µg/mL
> 100 µg/mL
> 100 µg/mL
> 100 µg/mL
10 µg/mL
> 100 µg/mL

* * *

Give measured MIC for each item. Keep answers brief.
system: Mycolicibacterium fortuitum; assay: Antimycobacterial activity against Mycobacterium fortuitum ATCC 19542 using compound level ranging from 1 to 100 ug/mL after 7 days by resazurin reduction test; type: functional; settings: ATCC 19542, 168 h

Problem: Give the reported value of MIC for this record: CCc1ccc(NC(=O)NNC(=O)c2cnc3c(C(F)(F)F)cccc3c2O)cc1
Result: > 100 µg/mL

Problem: Please indicate MIC recorded for Cn1cccc1/C=N\NC(=O)c1cnc2c(C(F)(F)F)cccc2c1O
Result: 10 µg/mL

Problem: Find the measured MIC of COc1ccc(/C=N/NC(=O)c2cnc3c(C(F)(F)F)cccc3c2O)cc1 and report it.
Result: 10 µg/mL

Problem: Please report MIC for the following molecule: Cc1[nH]cnc1/C=N/NC(=O)c1cnc2c(C(F)(F)F)cccc2c1O
Result: 10 µg/mL

Problem: Quick one: give measured MIC for CO[C@H]1/C=C/O[C@@]2(C)Oc3c(C)c(O)c4c(O)c(c(/C=N/N5CCN(C)CC5)c(O)c4c3C2=O)NC(=O)/C(C)=C\C=C\[C@H](C)[C@H](O)[C@@H](C)[C@@H](O)[C@@H](C)[C@H](OC(C)=O)[C@@H]1C [RIFAMPIN]
Result: 1.5 µg/mL

Problem: Identify the reported MIC for the following entry. O=C(NNC(=S)Nc1cccnc1)c1cnc2c(C(F)(F)F)cccc2c1O
Result: > 100 µg/mL

Problem: Identify measured MIC associated with Cc1ccc(NC(=O)NNC(=O)c2cnc3c(C(F)(F)F)cccc3c2O)cc1
Result: 10 µg/mL

Problem: Please give measured MIC of the following entry: NNC(=O)c1ccncc1 [ISONIAZID]
Result: 12.5 µg/mL

Items follow; give MIC for each.
1. Cc1cc(C)cc(NC(=O)NNC(=O)c2cnc3c(C(F)(F)F)cccc3c2O)c1
2. O=C(N/N=C/c1ccncc1)c1cnc2c(C(F)(F)F)cccc2c1O
3. O=C(N/N=C/c1ccc2c(c1)CCO2)c1cnc2c(C(F)(F)F)cccc2c1O
4. O=C(NNC(=S)Nc1ccccc1F)c1cnc2c(C(F)(F)F)cccc2c1O

Result:
> 100 µg/mL
> 100 µg/mL
> 100 µg/mL
10 µg/mL

List reported MIC for each of these molecules:
1. COc1ccc(NC(=O)NNC(=O)c2cnc3c(C(F)(F)F)cccc3c2O)cc1
2. O=C(N/N=C/c1cc(F)ccc1O)c1cnc2c(C(F)(F)F)cccc2c1O
3. COc1ccc(/C=N/NC(=O)c2cnc3c(C(F)(F)F)cccc3c2O)cc1O

Result:
10 µg/mL
10 µg/mL
> 100 µg/mL

Origin of the recorded values: ChEMBL document CHEMBL1909590
